B1: LINE1-full (parent)
chain: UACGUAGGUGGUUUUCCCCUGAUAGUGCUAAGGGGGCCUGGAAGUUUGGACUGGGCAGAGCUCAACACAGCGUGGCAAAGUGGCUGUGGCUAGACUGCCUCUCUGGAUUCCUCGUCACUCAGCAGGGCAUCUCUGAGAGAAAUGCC

- Variants of: B1
- Assay name: self-cleavage, relative activity (ratio to wild type); higher = more cleavage; in vitro, sequencing; the parent is a self-cleaving ribozyme
// label = true (1) if self-cleavage is not less than 1, otherwise false (0)

- G40A U81C: true (1)
- U9C U132C: true (1)
- U108A: true (1)
- C84U C98G: false (0)
- U12C G75C: false (0)
- U108A A138C: true (1)
- U26A U52C: false (0)
- A59C U130C: false (0)
- A59U A117U: false (0)
- U14C C111A: true (1)
- A22U U96A: false (0)
- U29C U96A: false (0)
- A64U U109A: false (0)
- A64U U85C: false (0)
- C38U U62A: false (0)
- A57G A69G: false (0)
- C38U C110A: true (1)
- U109C A129U: true (1)
- U1A G126C: true (1)
- A30G U130C: true (1)
- A57U C71U: false (0)
- A92U A124U: true (1)
- U9A G54A: false (0)
- G48A U102A: true (1)
- U47C C128A: false (0)
- U26A U102C: true (1)
- A31U A64U: false (0)
- U12C U52G: true (1)
- A59U U112C: true (1)
- U13A U20C: true (1)
- U1C G25A: false (0)
- U45C G137U: true (1)
- C19U G114A: true (1)
- A31G A77G: true (1)
- A24G C71U: true (1)
- U73G U85G: false (0)
- A43G U46A: true (1)
- U20C U47A: true (1)
- A107G U130G: true (1)
- U119A A140U: true (1)
- A94U U109A: false (0)
- G93A U132C: false (0)
- A124G A141G: true (1)
- A78G C90U: false (0)
